Origin of values: ChEMBL document CHEMBL1157539

For each record, write down the corresponding Inhibition.
# Test system: Plasmodium falciparum
# protocol.description: GSK_TCMDC: Inhibition of Plasmodium falciparum Dd2 in whole red blood cells, using parasite LDH activity as an index of growth. Test compounds present at 2uM
# Format: functional
Numeric only. Scale: %

## Task Quick check: Inhibition of COc1cc(Nc2nccc(-c3c(-c4cccc(NC(=O)c5c(F)cccc5F)c4)nn4ncccc34)n2)cc(OC)c1OC ?
## Result 97

## Task Entry N#Cc1ccc(N2CCN(C(=O)c3cccc(-c4noc(C(F)(F)F)n4)c3)CC2)nc1 : reported Inhibition = ?
## Result 58

## Task Field request: Inhibition | item: CN1CCN(CCc2ccc3nc(-c4csc(Cc5cc(Cl)ccc5OCc5ccccc5)n4)[nH]c3c2)CC1
## Result 97

## Task Look up Inhibition for this molecule: CN(C)c1cccc2c1nc(-c1ccco1)n2CCNCc1ccccc1.O=C(O)C(F)(F)F
## Result 97

## Task Data request, read-out Inhibition, for Cc1cc(N[C@@H](Cc2ccccc2)C(=O)NCc2cccs2)nc(NCCOc2ccccc2)n1.O=C(O)C(F)(F)F
## Result 31

## Task # input molecule: Cc1cc(-c2ccc(CNCCc3cccs3)cc2)ccc1S(=O)(=O)NCc1ccccc1.O=C(O)C(F)(F)F ; wanted: its Inhibition
## Result 0

## Task Requested field: Inhibition. Item: CN(C)CCCOc1ccc(CN2CC[C@H](NC(=O)c3ccc(Cl)c(Cl)c3)C2)cc1Cl.O=C(O)C(F)(F)F
## Result 35

## Task For the molecule shown here, CCc1cc(C(=O)c2cccc(C)c2)c(NC(=O)CN2CCN(C(=O)c3ccco3)CC2)s1 , give the reported Inhibition.
## Result 85

---

Please provide measured Inhibition for the entries that follow.
# Test system: HepG2
# protocol.description: GSK_TCMDC: Percent inhibition of human HepG2 cell line. Test compounds present at 10uM.
# Format: functional
Express the result in % but write the number alone.

## Task Return reported Inhibition; argument: c1csc(-c2nc(N3CCCCC3)ncc2-c2ccsc2)n1
## Result 0

## Task Given the compound COc1ccc(CNCc2cccc(-c3csc(-c4nc5ccccc5[nH]4)c3)c2)cc1.O=C(O)C(F)(F)F , what is its reported Inhibition?
## Result 17

## Task What value of Inhibition has been recorded for this entry: COc1cc2c(cc1OC)CN(c1cc(N)c3cc(OC)c(OC)cc3n1)CC2.CS(=O)(=O)O
## Result 23

## Task Query: Inhibition; subject: CC(C)N1CCC(N(Cc2ccc(-c3ccc(C(F)(F)F)cc3)cc2)C(=O)Cn2c(CCc3cccc(F)c3F)nc(=O)c3cccnc32)CC1.O=C(O)C(O)C(O)C(=O)O
## Result 100

---

# Test system: Plasmodium falciparum
# protocol.description: GSK_TCMDC: Inhibition of Plasmodium falciparum 3D7 in whole red blood cells, using parasite LDH activity as an index of growth. Test compounds present at 2uM
# Type: functional
readout.type: Inhibition (%)
Quick note: give the figure in %, leave out the unit.

## Task Looking for the measured Inhibition of CCOC(=O)c1ccc(NC(=O)Nc2ccc(-c3cccc(-c4nc5cc(F)ccc5[nH]4)c3)cc2)cc1 , can you help?
## Result 100

## Task Entry under review: CC(C)C[C@H](Nc1ccnc(NCC2CCCCC2)n1)C(=O)NCCc1ccccc1.O=C(O)C(F)(F)F . Reported Inhibition?
## Result 88

## Task Returns the measured Inhibition for the input compound. Input: O=C(CCc1c[nH]cn1)Nc1cccc(-c2ccc(-c3nc4cc(F)ccc4[nH]3)s2)c1
## Result 100

## Task Param item = Cc1ccc2c(=O)cc(CCc3cccc(F)c3F)n(CC(=O)N(Cc3ccc(-c4ccc(C(F)(F)F)cc4)cc3)C3CCN(C)CC3)c2n1.O=C(O)C(O)C(O)C(=O)O ; retrieve measured Inhibition.
## Result 86

## Task // lookup Inhibition for COc1ccc(CN2CCCN(Cc3ccc(C(=O)Nc4ccc(Cl)cc4)cc3)CC2)cc1.O=C(O)C(F)(F)F
## Result 91

## Task Can you share its Inhibition? I mean this compound: O=C(/C=C/c1ccc(Cl)c(Cl)c1)NCCCCCN1CCC(c2c[nH]c3c(-c4ccccc4)cccc23)CC1
## Result 99

## Task Query (compound): O=C(/C=C/c1ccc(Cl)c(Cl)c1)NCCCCCN1CCC(NC(=O)Nc2cccc(Cl)c2)CC1 ; field requested: Inhibition
## Result 100

## Task Returns the measured Inhibition for the input compound. Input: COc1cc(C(=O)N2CCOC(CCN3CCC(c4ccc(Cl)cc4)CC3)(c3ccc(Cl)c(Cl)c3)C2)cc(OC)c1OC (stereo not given)
## Result 91

## Task Field request: Inhibition | item: O=C(Nc1ccc(Cn2ncc(N3CCCNCC3)c(Cl)c2=O)cc1)Nc1ccc(C(F)(F)F)cc1.O=C(O)C(F)(F)F
## Result 90

## Task Data request, read-out Inhibition, for O=C(NCC1CC1)C1CCN(C(c2ccccc2)c2cc(F)cc(F)c2)CC1 (stereo not given)
## Result 99

## Task Which Inhibition value belongs to CCOc1cc(C(=O)NCCCN2CCN(c3cccc(Cl)c3)CC2)ccc1-c1nc2cc(Cl)c(F)cc2[nH]1 ?
## Result 96

## Task Suppose we examine the compound COc1ccc(NC(=O)NC2CCN(CCCOc3cc(C)nc4ccccc34)CC2)cc1OC ; what Inhibition value has been reported?
## Result 97

## Task Dear colleague, I am looking for the recorded Inhibition of the following compound: Cc1nc(C)c(-c2ccc(Oc3ccc(OC(F)(F)F)cc3)cc2)c(OC(=O)c2ccccc2)c1Cl
## Result 97

## Task Suppose we examine the compound COCCN1CCC(N(CC2(O)CCN(c3ccc(C(F)(F)F)cc3)CC2)C(=O)Cn2c(SCc3cccc(F)c3F)cc(=O)c3ccccc32)CC1 ; what Inhibition value has been reported?
## Result 94

## Task Look at this compound and give its reported Inhibition. O=C(Nc1ccc(OC2CCN(Cc3ccc(F)cc3)C2)cc1)c1cccs1.O=C(O)C(F)(F)F (stereo not given)
## Result 94

## Task Fill in the blank: the reported Inhibition of CO/C(=C\C=C\c1cc2cc(Cl)c(Cl)cc2[nH]1)C(=O)NCCCN1CCC(c2ccccc2)CC1 is ____.
## Result 100

## Task Form field: reported Inhibition of CCCCCCOc1ccc(C(=O)N[C@H]2CCN(CCCCCNC(=O)/C=C/c3ccc(Cl)c(Cl)c3)C2)cc1
## Result 99

## Task For the compound Oc1ccc2[nH]cc(C3CCN(CCCCCCCCCN4CCC(c5c[nH]c6ccc(O)cc56)CC4)CC3)c2c1 , what Inhibition is on record?
## Result 100

## Task Using the record for CSc1nnc2n(Cc3ccccc3)c(=O)c3c(n12)-c1ccccc1CC31CCCCC1 , report its Inhibition.
## Result 93

## Task Which Inhibition is reported for this compound? N#Cc1ccc(-c2ccc(C(=O)NC3CCN(CCN4CCC(c5cn(CCO)c6ccccc56)CC4)CC3)cc2)cc1
## Result 100

## Task Can you share its Inhibition? I mean this compound: O=C(Nc1ccc(C(F)(F)F)cc1)NC1CCN(c2ccnc3ccccc23)C1.O=C(O)C(F)(F)F (stereo not given)
## Result 100

## Task Consider the compound shown here: Cn1cncc1CCN(Cc1ccc(-c2ccc(C(F)(F)F)cc2)cc1)C(=O)Cn1c(CCc2cccc(F)c2F)cc(=O)c2cccnc21 What is its recorded Inhibition?
## Result 100

## Task Entry COc1cc2c(c(Cl)c1OC)CCN(Cc1ccccc1)CC2c1ccc(C(N)=O)cc1 (stereo not given) has what Inhibition?
## Result 97

## Task Which Inhibition value is on record for CN(CCS(C)(=O)=O)Cc1ccc(-c2ccc3ncnc(Nc4ccc(OCc5cccc(F)c5)c(Cl)c4)c3c2)o1.Cc1ccc(S(=O)(=O)O)cc1 ?
## Result 100

## Task Field request: Inhibition | item: C=CCc1cc(Br)ccc1OCCCOc1c(C)nc(N)nc1N.Cl
## Result 94

## Task // returns reported Inhibition for input COc1ccc(-c2cccc(NC(=O)c3ccc(F)cc3)c2)cc1CN1CCCN(C)CC1.O=C(O)C(F)(F)F
## Result 100

## Task Need Inhibition, item Cl.Fc1ccc2ncc(Cl)c(CCN3CCC(NCc4cc5c(cn4)OCCO5)CC3)c2c1
## Result 93

## Task Reported Inhibition for COc1ccc2c(=NN=Cc3ccccc3Cl)cc(C)[nH]c2c1 : what is it?
## Result 100

## Task Report Inhibition for O=c1cc(NCCCCNCc2cccc(C(F)(F)F)c2)[nH]c2ccccc12 please.
## Result 94

## Task Look up Inhibition: Cc1cc(N[C@@H](Cc2ccccc2)C(=O)NCCc2ccccc2)nc(NCc2ccccc2C)n1.O=C(O)C(F)(F)F
## Result 99

## Task # lookup: Inhibition of CN(C)C(=S)N/N=C1/C(=O)Nc2ccc(OC(F)(F)F)cc21
## Result 93

## Task Sample CCn1cc(C=C2Oc3c(ccc(O)c3CN3CCCCC3)C2=O)c2cc(OC)ccc21 — what was its Inhibition?
## Result 99

## Task Entry Cc1cccc2nc(-c3ccc(-c4cccc(CNCc5cnn(-c6ccccc6)n5)c4)s3)[nH]c12.O=C(O)C(F)(F)F has what Inhibition?
## Result 98

## Task Which measured Inhibition value corresponds to CCN(CC)CCCC(C)Nc1c(-c2ccc(C)cc2)cnc2ccccc12 (stereo not given) ?
## Result 85

## Task Field request: Inhibition | item: Cc1cc(C(=O)NC2CCN(CC3(c4ccccc4)CCCCC3)CC2)on1
## Result 97
